- assay.target: recombinant GSK3β kinase (Homo sapiens (Human), UniProt P49841)
- Sequence (P49841 whole entry): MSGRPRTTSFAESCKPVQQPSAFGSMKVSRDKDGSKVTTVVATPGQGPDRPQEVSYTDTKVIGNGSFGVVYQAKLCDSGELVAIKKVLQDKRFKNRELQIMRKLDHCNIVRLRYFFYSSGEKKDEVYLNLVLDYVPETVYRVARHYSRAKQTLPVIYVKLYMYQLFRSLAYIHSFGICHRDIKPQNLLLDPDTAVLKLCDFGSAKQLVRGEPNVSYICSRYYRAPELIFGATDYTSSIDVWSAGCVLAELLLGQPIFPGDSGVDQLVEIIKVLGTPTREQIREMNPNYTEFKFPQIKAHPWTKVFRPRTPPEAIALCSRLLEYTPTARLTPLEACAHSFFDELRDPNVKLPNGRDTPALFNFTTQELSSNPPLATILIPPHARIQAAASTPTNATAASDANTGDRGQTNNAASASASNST
- assay.details: GSK3β kinase assay (Ser/Thr 09 peptide Z-lyte FRET);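 further: kinase activity read as coumarin to fluorescein emission ratio, 11-point threefold dilutions from 10 µM to 0.0003 µM in duplicate, unphosphorylated and phosphorylated peptide as 0% and 100% controls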
- condition.notes: 46 μM ATP, 1 h room temperature
// reported EC50 per item
A number alone suffices; assume nM.

[
  {
    "compound": "O=C(CN1C2CCC1CC2)Nc1cc2cc(-c3cnn4c3CN(CCF)CC4)ccc2cn1 [Compound 1000]",
    "observed.measurement": 270
  },
  {
    "compound": "Cn1cc(-c2ccc3cnc(NC(=O)C4CCN(CC5(C)COC5)CC4)cc3c2)nn1 [Compound 472]",
    "observed.measurement": 8
  },
  {
    "compound": "Cc1nnc(-c2ccc3cnc(NC(=O)C4CCN(C(=O)c5ccccc5)CC4)cc3c2)s1 [Compound 921]",
    "observed.measurement": 5
  }
]

# next compound below
Entry CN1CCC(F)(C(=O)Nc2cc3cc(-c4cnn(C)c4)ccc3cn2)CC1 [Compound 92] : reported EC50 = ?
361
